biological target: Human immunodeficiency virus type 1 integrase (Human immunodeficiency virus 1, UniProt Q7ZJM1); experiment: Inhibitory concentration against HIV-1 integrase by strand transfer method
Sequence (Q7ZJM1 whole entry): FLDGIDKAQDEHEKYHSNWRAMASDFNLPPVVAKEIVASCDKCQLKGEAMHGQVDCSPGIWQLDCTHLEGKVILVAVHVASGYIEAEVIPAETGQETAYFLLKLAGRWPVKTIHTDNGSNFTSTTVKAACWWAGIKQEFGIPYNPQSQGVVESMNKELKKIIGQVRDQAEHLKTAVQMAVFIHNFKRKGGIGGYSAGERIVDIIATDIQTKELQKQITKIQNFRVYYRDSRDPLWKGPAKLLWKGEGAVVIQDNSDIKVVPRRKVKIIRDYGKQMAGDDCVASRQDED
Here, each record is paired with measured IC50 data.

Look over these answered cases.
molecule: CCOC(=O)C(CCCCn1cnc2ncnc(Cl)c21)(NC(C)=O)C(=O)OCC
IC50: > 200 µM

molecule: CS(=O)(=O)Nc1ccc2oc(=O)c3ccccc3c2c1
IC50: > 200 µM

molecule: CC1=NN(c2ccccc2)C(=O)C1/N=N/c1ccc(S(=O)(=O)Nc2cc(C)nc(C)n2)cc1 (configuration not stated)
IC50: > 200 µM

molecule: CC1C(=N)/C(=N/Nc2ccc(S(=O)(=O)Nc3ccccn3)cc2)C(=O)C(C)C1=O (configuration not stated)
IC50: > 200 µM

molecule: CC1=NN(c2ccccc2)C(=O)C1/N=N/c1ccc(S(N)(=O)=O)cc1 (configuration not stated)
IC50: > 200 µM

molecule: CC(=O)NCCSS(=O)(=O)CCCCCS(=O)(=O)SCCNC(C)=O
IC50: > 200 µM

molecule: CC(=O)C1(/N=N/c2ccc(S(=O)(=O)Nc3nccc(C)n3)cc2)CCOC1=O (configuration not stated)
IC50: 65 µM

molecule: Cc1nnc(NS(=O)(=O)c2ccc(N/N=C3/C(=N)C(C)C(=O)C(C)C3=O)cc2)s1 (configuration not stated)
IC50: > 200 µM

query: What IC50 value was documented for this molecule, COc1cc(NS(=O)(=O)c2ccc(C(C)=O)cc2)nc(OC)n1 ?
result: > 200 µM

query: What IC50 value was documented for this molecule, O=C(O)c1ccccc1/C=N/NC1=CS(=O)(=O)C=C1 ?
result: > 200 µM

query: What IC50 value was documented for this molecule, Cc1nnc(NS(=O)(=O)c2ccc(C3SC(=S)NC3=O)cc2)s1 (configuration not stated) ?
result: 19 µM

query: What IC50 value was documented for this molecule, CCOC(=O)C(/C=N/c1ccc(S(N)(=O)=O)cc1)C(=O)OCC ?
result: > 200 µM

----------
molecular target: Human immunodeficiency virus type 1 integrase (Human immunodeficiency virus 1); test: Inhibitory concentration to inhibit HIV-1 integrase by 3' -processing method
pIC50: −log10 of the molar value.
attributeMeasured: pIC50

Look over these answered cases.
molecule: CC(=O)C1(/N=N/c2ccc(S(=O)(=O)Nc3ccccn3)cc2)CCOC1=O (centres undefined)
recordedMeasurement: < 3.70
//
molecule: Cc1ccnc(NS(=O)(=O)c2ccc(N/N=C3/C(=N)C(C)C(=O)C(C)C3=O)cc2)n1 (centres undefined)
recordedMeasurement: < 3.70
//
molecule: CS(=O)(=O)c1nc2ccc(N3C(=O)c4ccccc4C3=O)cc2s1
recordedMeasurement: < 3.70
//
molecule: Cc1cc(C)nc(NS(=O)(=O)c2ccc(NC(=O)c3cccc4c(N)c5ccccc5nc34)cc2)n1
recordedMeasurement: 4.32
//
molecule: CC(=O)C1(/N=N/c2ccc(S(=O)(=O)Nc3nccc(C)n3)cc2)CCOC1=O (centres undefined)
recordedMeasurement: 4.15
//
molecule: CC1C(=N)/C(=N/Nc2ccc(S(=O)(=O)Nc3nccs3)cc2)C(=O)C(C)C1=O (centres undefined)
recordedMeasurement: < 3.70
//
molecule: Cc1ccnc(NS(=O)(=O)c2ccc(NC(=O)Nc3ccc(Cl)c(C(F)(F)F)c3)cc2)n1
recordedMeasurement: 3.91
//
molecule: NS(=O)(=O)c1ccc(NC(=O)/C=C\C(=O)O)cc1
recordedMeasurement: < 3.70

query: What pIC50 value was documented for this molecule, CC1C(=N)/C(=N/Nc2ccc(S(=O)(=O)Nc3ccccn3)cc2)C(=O)C(C)C1=O (centres undefined) ?
result: < 3.70

Measured values drawn from ChEMBL document CHEMBL1129973 for this set.
